These entries and their values trace back to ChEMBL document CHEMBL4689842.

System: U2OS
Experiment: Multiplex assay against U2OS
Format: toxicity, cell-based
Details: human, 24 h, 10 µM, compound concentration 10 uM, replicate 2
Experimental Endpoint: Population Tubulin-Different-Phenotype (%)
Report only the number, with the unit % understood.

For orientation, consider the following solved cases.
{"Smiles Text": "COC(=N)c1nc2ccc3ncnc(Nc4ccc(OC)cc4F)c3c2s1", "Reported Value": 32}
{"Smiles Text": "Cc1cc(C)c(S(=O)(=O)N(Cc2ccc(-c3cccc(S(C)(=O)=O)c3)cc2)Cc2ccc(C(F)(F)F)o2)c(C)c1", "Reported Value": 15}
{"Smiles Text": "Cn1nc(C(F)(F)F)cc1-c1cnc(N2CCc3cc(S(=O)(=O)Nc4c(F)cc(Cl)cc4F)cc(N4CCCC4=O)c32)nc1", "Reported Value": 25}
{"Smiles Text": "C=CCn1c(=O)c2cnc(Nc3ccc(N4CCN(C)CC4)cc3)nc2n1-c1cccc(C(C)(C)O)n1", "Reported Value": 75}
{"Smiles Text": "NC(=O)c1cccc(-c2cc(Nc3ccc(OC(F)(F)F)cc3)ncn2)c1", "Reported Value": 19}
{"Smiles Text": "CCN(CC)S(=O)(=O)Nc1cccc(-c2ccc3c(NC(=O)C4CC4)n[nH]c3c2)c1", "Reported Value": 22}
{"Smiles Text": "CCc1cccc(CC)c1NC(=O)c1nn(C)c2c1CCc1cnc(Nc3ccc(C(=O)NC4CCN(C)CC4)cc3OC(F)(F)F)nc1-2", "Reported Value": 73}
{"Smiles Text": "COc1ccc(S(=O)(=O)N(CCO)c2ccccc2CN(C)C/C=C/c2ccc(Cl)cc2)cc1.O=P(O)(O)O", "Reported Value": 11}

Query: Which measured Population Tubulin-Different-Phenotype (%) belongs to `COc1ccc(-c2ccc3c(N4CCOCC4)nc(N4C[C@@H](C)O[C@@H](C)C4)nc3n2)cc1CO` , tested on U2OS?
Reply: 7

Query: Which measured Population Tubulin-Different-Phenotype (%) belongs to `CCc1cccc(CC)c1NC(=O)c1nn(C)c2c1CCc1cnc(Nc3ccc(N4CCN(C)CC4)cc3OC)nc1-2` , tested on U2OS?
Reply: 94

Query: Which measured Population Tubulin-Different-Phenotype (%) belongs to `CCOc1cc(C(=O)N2CCC(N3CCN(C)CC3)CC2)ccc1Nc1ncc2c(n1)N(C1CCCC1)c1ccccc1C(=O)N2C` , tested on U2OS?
Reply: 100

Query: Which measured Population Tubulin-Different-Phenotype (%) belongs to `CCN1CCN(Cc2ccc(Nc3ncc(F)c(-c4cc(F)c5nc(C)n(C(C)C)c5c4)n3)nc2)CC1.CS(=O)(=O)O` , tested on U2OS?
Reply: 100
